# growth per entry
tested on: SK-OV-3 ovarian; assay: NCI-60 one-dose screen, 48 h (100 = growth as untreated, 0 = no growth, -100 = all killed); settings: 10 µM
The panel holds about 83,000 compounds, 20% with a hit somewhere; the sample as a whole holds those more often.
Field format: number, assumed %, no unit text.

# MOLECULE, OUTCOME MEASURE, MEASURED RESULT
data = [
    ("S=C1N(c2ccccc2)CN(C2CCCCC2)CN1c1ccccc1", "growth", 117),
    ("NS(=O)(=O)c1ccc(Br)cc1", "growth", 80.8),
    ("COCCn1cc(-c2nc(-c3cccnc3)cs2)c2cc(F)ccc21", "growth", 7.36),
    ("NC1=NC(c2ccccc2)C2=C(N1)/C(=C/c1ccccc1)CCC2 (stereo not given)", "growth", 74),
    ("COc1ccc(/C=C2/SC(=S)NC2=O)c(OC)c1OC", "growth", 91.1),
    ("CCc1ccc(C2=NN(c3ccc(S(C)(=O)=O)cc3)C(=O)CC2)cc1", "growth", 28.7),
]

# growth measured on SK-OV-3 ovarian for item O=C(Nc1ccc2c(O)cc(S(=O)(=O)O)cc2c1)c1ccc([N+](=O)[O-])cc1 = 82.7

# growth measured on SK-OV-3 ovarian for item Cc1ccc(C2=NN(c3ccc(S(C)(=O)=O)cc3)C(=O)CC2)cc1 = 19.9

# growth measured on SK-OV-3 ovarian for item O=C1/C=C/[C@@H](O)[C@@H]2C[C@@H](O)C[C@H]2/C=C/CCC[C@H](CCc2ccc(C(F)(F)F)cc2)O1 = 12.5

# growth measured on SK-OV-3 ovarian for item Cc1c(C(N)=O)sc2c1c(=O)n(Cc1ccccc1)c1nnc(-c3ccc(Br)cc3)n21 = 33.2

Reference for the values: PubChem BioAssay (NCI)
